Hi there, I'd appreciate the recorded GI50 for every entry that follows.
Tested on: M14
Assay: NCI tumour cell line growth inhibition, 48 h
Active and inactive are the calls of the source. Cut-off read from the data, not from the text of the source: active = GI50 up to about 1.1 µM and inactive = higher.

Bench note, M14: entry CN(C)NC1=C([N+](=O)[O-])C=NN(c2ccccc2)C1 , its GI50 = 1.82 µM (inactive)

Param item: Nc1ncnc2oc(C3OC(COC(=O)c4ccccc4)C(OC(=O)c4ccccc4)C3OC(=O)c3ccccc3)nc12 (stereo unspecified) ; param system: M14; output GI50: > 100 µM (inactive)

Readout GI50 for CCn1cnc2c(=S)nc(N)[nH]c21 , test system M14, was > 100 µM (inactive)

Kindly note: M14, NC1=C(C(=O)O)C(=O)C(Nc2c(O)cccc2C(=O)O)=CC1=O , GI50 value reported: 45.4 µM (inactive)

// compound OCCN(CCO)c1nc(N2CCCCC2)c2nc(N(CCO)CCO)nc(N3CCCCC3)c2n1 , assay M14, GI50 value: 55.8 µM (inactive)

Value sought: GI50, system M14, item COC(=S)OC1CC(n2cnc3c(N)ncnc32)OC1CO[Si](C)(C)C(C)(C)C (stereo unspecified) . Result: 16.4 µM (inactive)

Case CCOC(=O)[C@H](CO)NC1=C(Cl)C(=O)c2c(O)ccc(O)c2C1=O , M14, GI50 recorded as > 10 µM (inactive)

Measured GI50 (M14), entry CC(=O)OC1(C(C)=O)CC2(c3ccccc3)OC1(c1ccccc1)c1ccccc12 (stereo unspecified) : 14.4 µM (inactive)

Fill in: M14 GI50 for COC(=O)/C=C\n1c(C)cc(=O)[nH]c1=O = > 100 µM (inactive)

The measured GI50 that Cc1ccc2oc3c(ccc(=O)n3C)c(=O)c2c1 showed for M14 is > 100 µM (inactive)

Entry O=c1oc(=O)c2oc3ccccc3oc1=2 , tested on M14, has a reported GI50 of > 100 µM (inactive)

---

Test system: NCI-H522
Assay: NCI tumour cell line growth inhibition, 48 h
The source made the active and inactive calls. Rule as the data show it: active = GI50 up to about 1.1 µM and inactive = higher.
Kindly state GI50 for each of the entries shown.

Kindly note: NCI-H522, C=CCc1cccc(/C=N\N/C(N)=N/O)c1O , GI50 value reported: 3.23 µM (inactive)

The compound CC(c1ccccc1)n1cncc1C(=O)NN1CCN(C)CC1 (stereo not given) on NCI-H522: GI50 was > 10 µM (inactive)

The observed GI50 for Nc1nc(O)c2nc3c(nc2n1)C(=O)N(c1ccc(C(=O)O)cc1)C3 when tested with NCI-H522 stands at > 100 µM (inactive)

Reported NCI-H522 GI50 for item O=C(Nc1ccccc1)c1cc2ccccc2c(/N=N\c2cccc([N+](=O)[O-])c2)c1O was 5.56 µM (inactive)

Tested on NCI-H522, the item CCOc1ccc2nc(NC(=O)C(=O)C3C(=O)C(CC4C(=O)c5ccccc5C4=O)C(=O)CC3(C)C)sc2c1 (stereo not given) showed GI50 equal to > 100 µM (inactive)

The value of GI50 recorded for OC(Cc1cccc2ccccc12)CN1CCC(c2ccccc2)CC1 (stereo not given) when tested on NCI-H522 reads 9.48 µM (inactive)

Tested system NCI-H522; GI50 recorded for COc1cc(C2SCC(=O)N2c2ccc(-c3ccc(-n4c(-c5ccccc5)nc5ccccc5c4=O)cc3)cc2)cc(OC)c1OC (stereo not given) was 13.4 µM (inactive)

Param item: CC(C)(CN1CCCCC1)C(=O)CC(SCCS(=O)(=O)O)c1ccc(Br)cc1 (stereo not given) ; param system: NCI-H522; output GI50: 1.15 µM (inactive)

Known value: NCI-H522 GI50 of the compound CCOC(=O)c1ccc(NC(=O)Oc2ccc3c(C)cc(=O)oc3c2)cc1 equals 18.7 µM (inactive)

Let me check: Cc1cc(Cl)ccc1NC(=O)CC/C(CC(=O)C(C)C)=N\NC(=O)C[n+]1ccccc1 , system NCI-H522, measured GI50 is > 100 µM (inactive)

---

System: ACHN
Assay: NCI tumour cell line growth inhibition, 48 h
Active and inactive are the calls of the source. Cut-off read from the data, not from the text of the source: active = GI50 up to about 1.1 µM and inactive = higher.
Your answer must be one of the following: active, inactive

*Q* Write down the call the test reported for this compound. Item: CC(=O)O[C@H]1C(N(C)C(=O)c2ccccc2)CC[C@]2(C)C3CC[C@@]4(C)C(CC(O)[C@@H]4C(C)N(C)C)[C@@H]3CCC12 (some centres not stated)
*A* inactive

*Q* Tell me the assay call for Cc1ccc(S(=O)(=O)c2c(N)n(CCN(C)C)c3nc4ccccc4nc23)cc1 please.
*A* inactive

*Q* In this assay, the call recorded for CCN(CC)CCn1c2ccccc2c(=O)c2c(O)ccc(O)c21 was what?
*A* inactive

*Q* Fill in: this test's call for COc1ccc(/C=C/c2nsc(/C=C/c3ccc(OC)cc3)n2)cc1 is ___
*A* inactive

*Q* # lookup: test call for CC(=O)CCC(=O)CC(O)(C(F)(F)F)C(F)(F)F
*A* inactive

*Q* Record request — test call for CC(C)(C)OC(=O)N(CCCCN(CCCNC(=O)C(F)(F)F)C(=O)OC(C)(C)C)CCCNC(=O)C(F)(F)F
*A* inactive

*Q* GET /call?item= N=C(N)NS(=O)(=O)c1ccc(N/N=C2/CCOC2=O)cc1 returns the recorded outcome of this test.
*A* inactive

*Q* # outcome recorded in this test, key = O=C(c1ccccc1)C(C(=O)c1ccccc1)C1(O)C(=O)c2ccccc2C1=O
*A* inactive

*Q* Call for entry Nc1ncnc2oc(C3OC(COC(=O)c4ccccc4)C(OC(=O)c4ccccc4)C3OC(=O)c3ccccc3)nc12 (configuration not stated) :
*A* inactive

*Q* I'd appreciate the recorded outcome for O=C1C=CC(=O)c2c1ccc1c3ccccc3n(-c3ccccc3[N+](=O)[O-])c21 from this test.
*A* inactive

*Q* How did this test come out for Cc1ccc(S(=O)(=O)N(CC(=O)O)c2ccccc2)cc1 ?
*A* inactive

*Q* State the result this test recorded for CCOC(=O)c1sc2c(sc(=O)n2-c2ccccc2)c1O .
*A* inactive

*Q* Give the logged outcome of this assay for the following compound: C=CC[C@]1(/C=N/O)CN(S(=O)(=O)CC[Si](C)(C)C)C[C@H]2CC=CC[C@H]21
*A* inactive

*Q* Entry COc1ccccc1NC(=O)C1=C(C)NC(C)=C(C(=O)Nc2ccccc2OC)C1c1ccccc1[N+](=O)[O-] : call = ?
*A* inactive

*Q* Hi, do you know how O=C1c2ccccc2CC12Cc1ccc3c(c1C2)CCC3 (configuration not stated) came out in this test?
*A* inactive

*Q* Record lookup: outcome of this test for C/C(CCn1[nH]c(=O)ccc1=O)=N\N=C(N)N ?
*A* inactive

*Q* How did this test come out for CCOC(=O)c1c(SC(=O)c2ccc(OC)cc2)n(-c2ccccc2)c(=S)n(-c2ccccc2)c1=O ?
*A* inactive

*Q* Answer briefly: the call reported for COC(=O)CCC(C)C1CCC2C3CCC4CC5CCC4(C)C3(O5)C(Br)C(Br)C12C (configuration not stated) in this assay.
*A* inactive

*Q* GET /call?item= Cc1cc(S(=O)(=O)Nc2nc(Nc3ccccc3)n[nH]2)c(SSc2cc(Cl)c(C)cc2S(=O)(=O)Nc2nc(Nc3ccccc3)n[nH]2)cc1Cl returns the recorded outcome of this test.
*A* inactive

*Q* Kindly provide the recorded test outcome for the following compound: O=[N+]([O-])c1ccccc1S(=O)(=O)c1cccc2c1NCCC2
*A* inactive

*Q* Which outcome was assigned to CC(=O)OCCc1cc2ccccc2oc1=O in this test?
*A* inactive

*Q* Fill in: this test's call for FC(F)(F)c1cccc(/C=N/C23CC4CC(CC(C4)C2)C3)c1 is ___
*A* inactive

*Q* Per the assay record, what outcome was assigned to CCOC(=O)[C@@H]1CCN2CN(c3ccc(OC)cc3)N=C(c3ccccc3)[C@@]12c1ccccc1 ?
*A* inactive

*Q* Check the results log: what was the call for CC(C)=NNc1snnc1C(N)=O ?
*A* inactive

*Q* Hello, I am checking results. What call was entered for N#CC(C#N)/N=N/c1ccc(-c2nc3ccccc3[nH]2)cc1 ?
*A* inactive

*Q* GET /call?item= CCc1n[nH]c(=O)n1/N=C/c1ccc(/C=N/n2c(CC)n[nH]c2=O)cc1 returns the recorded outcome of this test.
*A* inactive

*Q* Dear colleague, could you share the recorded outcome for CN(O)C(=O)Cc1ccc(OCc2cccc(Cl)c2)cc1 when you have a moment?
*A* inactive

*Q* Query: recorded result category for COc1cc2ccc1OCc1cccc(n1)COc1ccc(cc1OC)/C=N\CCNCC/N=C\2 in this test
*A* inactive

*Q* # lookup: test call for COc1cc2c(c(OC)c1O)-c1ccc(SC)c(=O)cc1C(NC(C)=O)CC2 (configuration not stated)
*A* active

*Q* Assay result, entry CCn1cnc2c(=S)nc(N)[nH]c21 — outcome?
*A* inactive

*Q* Please share the test call associated with CCOC(=O)/C(C#N)=C/c1ccc(SCc2ccco2)c([N+](=O)[O-])c1 .
*A* inactive

*Q* Hi, do you know how Cc1ccc(S(=O)(=O)N2CCNCCN(S(=O)(=O)c3ccc(C)cc3)CCNCC2)cc1 came out in this test?
*A* inactive

Reference source: ChEMBL document CHEMBL1201862
